# Tested on: D(2) dopamine receptor (Rattus norvegicus, UniProt P61169)
# Sequence (P61169 whole entry): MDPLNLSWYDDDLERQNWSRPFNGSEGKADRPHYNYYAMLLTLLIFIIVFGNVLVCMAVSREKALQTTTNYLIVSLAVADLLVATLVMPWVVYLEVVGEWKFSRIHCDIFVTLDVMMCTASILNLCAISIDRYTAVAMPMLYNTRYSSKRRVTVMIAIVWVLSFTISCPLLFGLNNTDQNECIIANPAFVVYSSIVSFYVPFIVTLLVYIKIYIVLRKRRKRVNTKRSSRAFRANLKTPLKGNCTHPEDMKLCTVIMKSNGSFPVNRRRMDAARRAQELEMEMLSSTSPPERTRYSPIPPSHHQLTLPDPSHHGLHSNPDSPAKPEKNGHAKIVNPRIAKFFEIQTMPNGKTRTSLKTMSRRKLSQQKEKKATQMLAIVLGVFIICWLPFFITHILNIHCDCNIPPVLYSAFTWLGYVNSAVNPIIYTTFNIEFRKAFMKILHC
# Measurement description: Inhibitory concentration against radioligand [3H](-)-sulpiride binding to Dopamine receptor D2 in rat
Assign IC50 to each entry below.
Expressed in nM, but write only the number.

Which value of IC50 has been reported for CCCN(CCC)CCc1cc(Br)ccc1OCCCc1ccccc1 in the records?
685

Quick one: IC50 of CCCCCCN(CCC)CCc1ccc(OC)c(OCCc2ccccc2)c1 ?
619

Fill blank: measured IC50 of the molecule COc1ccc(CCN2CCN(c3ccccn3)CC2)cc1OCCc1ccccc1 is ____.
295

###

# Tested on: D(2) dopamine receptor (Rattus norvegicus, UniProt P61169)
# Measurement description: Inhibitory concentration against radioligand [3H](-)-sulpiride binding to Dopamine receptor D2 in rat
Measured quantity: IC50 (nM)
Write the answer as a number in nM, unit excluded.

Reported IC50 for D(2) dopamine receptor (Rattus norvegicus, UniProt P61169), given CCCN(CCC)CCc1cc(Cl)ccc1OCCCc1ccccc1 ?
876

# returns recorded IC50 (system: D(2) dopamine receptor (Rattus norvegicus, UniProt P61169)) for COc1ccc(CCN2CCN(c3ccccc3OC)CC2)cc1OCCc1ccccc1
11

Form entry - test system: D(2) dopamine receptor (Rattus norvegicus, UniProt P61169); read-out: IC50; compound: Clc1ccc(OCCc2ccccc2)c(CCN2CCN(c3ccccn3)CC2)c1
51
